# target.desc: T1, human VEGF (hVEGF) (human, UniProt P15692 181-395);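 further: fab variants flowed over hVEGF immobilized on a CM5 chip, rate constants from a one-to-one Langmuir fit, Kd taken as koff over kon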
# T1 construct: also called VEGF-A
# T1 sequence: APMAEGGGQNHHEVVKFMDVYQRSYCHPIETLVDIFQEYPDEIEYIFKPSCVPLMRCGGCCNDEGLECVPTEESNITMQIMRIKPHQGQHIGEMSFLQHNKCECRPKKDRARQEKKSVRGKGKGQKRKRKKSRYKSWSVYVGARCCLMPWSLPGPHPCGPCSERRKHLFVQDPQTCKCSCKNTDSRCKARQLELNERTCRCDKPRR
# procedure.text: SPR
observation.type: kon (M⁻¹ s⁻¹)
Give bare numbers, in M⁻¹ s⁻¹.

Q) Requested read-out: kon. Entry: HCLC2 (Fab, V domains shown, Fab) VH: EEQLVEEGGGLVQPGESLELSCAASGFEISDYWIHWVRQEPGEGLEWVAGITPAGGYEYYADSVEGRFTISADTSENTAYLQMNELRAEDTAVYYCARFVFFLPYAMDYWGQGELVTVSS VL: DIQMTQSPSSLSASVGDEVTITCRASQDVSTAVAWYQQKPGEAPKLLIYSASFLYSGVPSRFSGSGSGTDFTLTIESLQPEDAATYYCQQGYGAPFTFGQGTKVEIK
A) 2.12e+06

meta.source: patent US20210115124A1
